Data origin, for the record: ChEMBL document CHEMBL3526037

# ASSAY_REMARKS: AUC in women plasma at 25 to 32 mg by LC/MS/MS analysis
# Type: ADME, organism-based
# SETUP_CONDITIONS: female, human
QUANTITY_MEASURED: AUC (ng·h/mL)
// note: answer is a bare numeric in ng·h/mL

Sample CCOc1nc2cccc(C(=O)O)c2n1Cc1ccc(-c2ccccc2-c2nnn[nH]2)cc1 — what was its AUC?
3810

* * *

# ASSAY_REMARKS: Cmax in human plasma expressing CYP2C9*3 allele carrier polymorphism treated with losartan at 50 mg by LC/MS/MS analysis
# Format: ADME, organism-based
# Parameters: dose 50 mg
QUANTITY_MEASURED: Cmax
I'd appreciate it if you included the unit after the number.

Sample CCCCc1nc(Cl)c(C(=O)O)n1Cc1ccc(-c2ccccc2-c2nn[nH]n2)cc1 [CARBOXYLIC ACID METABOLITE] — what was its Cmax?
154 ng/mL

* * *

# ASSAY_REMARKS: AUC in men plasma at 50 mg by LC/MS/MS analysis
# Format: ADME, organism-based
# SETUP_CONDITIONS: male, human
QUANTITY_MEASURED: AUC (ng·h/mL)
// note: answer is a bare numeric in ng·h/mL

Sample CCCCc1nc(Cl)c(CO)n1Cc1ccc(-c2ccccc2-c2nn[nH]n2)cc1 — what was its AUC?
455

* * *

# ASSAY_REMARKS: AUC in human plasma expressing CYP2C8*4 allele carrier polymorphism at 50 mg by LC/MS/MS analysis
# Assay type: ADME, organism-based
QUANTITY_MEASURED: AUC (ng·h/mL)
// note: answer is a bare numeric in ng·h/mL

Sample CCCCc1nc(Cl)c(CO)n1Cc1ccc(-c2ccccc2-c2nn[nH]n2)cc1 [LOSARTAN] — what was its AUC?
494

* * *

# ASSAY_REMARKS: Half life in human plasma expressing CYP2C9*2 allele carrier polymorphism at 50 mg by LC/MS/MS analysis
QUANTITY_MEASURED: half-life (h)
// note: answer is a bare numeric in h

Sample CCCCc1nc(Cl)c(CO)n1Cc1ccc(-c2ccccc2-c2nn[nH]n2)cc1 [LOSARTAN] — what was its half-life?
2.4

* * *

# ASSAY_REMARKS: Clearance in human plasma expressing CYP2C8*4 allele carrier polymorphism at 50 mg by LC/MS/MS analysis
# Format: ADME, organism-based
QUANTITY_MEASURED: clearance
I'd appreciate it if you included the unit after the number.

Sample CCCCc1nc(Cl)c(CO)n1Cc1ccc(-c2ccccc2-c2nn[nH]n2)cc1 — what was its clearance?
26.7 mL/min/kg

* * *

# ASSAY_REMARKS: Cmax in men plasma at 80 mg by LC/MS/MS analysis
# Assay type: ADME, organism-based
# Design: dose 80 mg
# SETUP_CONDITIONS: male, human
QUANTITY_MEASURED: Cmax (ng/mL)
// note: answer is a bare numeric in ng/mL

Sample CCCc1nc2c(C)cc(-c3nc4ccccc4n3C)cc2n1Cc1ccc(-c2ccccc2C(=O)O)cc1 — what was its Cmax?
282

* * *

# ASSAY_REMARKS: Tmax in human plasma expressing CYP2C8*3 allele carrier polymorphism at 25 to 320 mg by LC/MS/MS analysis
# Format: ADME, organism-based
QUANTITY_MEASURED: Tmax (h)
// note: answer is a bare numeric in h

Sample CCCCC(=O)N(Cc1ccc(-c2ccccc2-c2nnn[nH]2)cc1)[C@H](C(=O)O)C(C)C — what was its Tmax?
3

* * *

# ASSAY_REMARKS: Cmax in human plasma expressing CYP2C9*2 allele carrier polymorphism at 25 to 32 mg by LC/MS/MS analysis
# Type: ADME, organism-based
QUANTITY_MEASURED: Cmax (ng/mL)
// note: answer is a bare numeric in ng/mL

Sample CCOc1nc2cccc(C(=O)O)c2n1Cc1ccc(-c2ccccc2-c2nnn[nH]2)cc1 — what was its Cmax?
217

* * *

# ASSAY_REMARKS: Tmax in human plasma expressing CYP2C8*1/*1 polymorphism at 25 to 32 mg by LC/MS/MS analysis
# Assay type: ADME, organism-based
QUANTITY_MEASURED: Tmax (h)
// note: answer is a bare numeric in h

Sample CCOc1nc2cccc(C(=O)O)c2n1Cc1ccc(-c2ccccc2-c2nnn[nH]2)cc1 — what was its Tmax?
5.2

* * *

# ASSAY_REMARKS: AUC in human plasma expressing CYP2C8*1/*1 polymorphism at 25 to 320 mg by LC/MS/MS analysis
# Type: ADME, organism-based
QUANTITY_MEASURED: AUC (ng·h/mL)
// note: answer is a bare numeric in ng·h/mL

Sample CCCCC(=O)N(Cc1ccc(-c2ccccc2-c2nnn[nH]2)cc1)[C@H](C(=O)O)C(C)C — what was its AUC?
36500

* * *

# ASSAY_REMARKS: Cmax in women plasma treated with losartan at 50 mg by LC/MS/MS analysis
# Assay type: ADME, organism-based
# Parameters: dose 50 mg
# SETUP_CONDITIONS: female, human
QUANTITY_MEASURED: Cmax (ng/mL)
// note: answer is a bare numeric in ng/mL

Sample CCCCc1nc(Cl)c(C(=O)O)n1Cc1ccc(-c2ccccc2-c2nn[nH]n2)cc1 [CARBOXYLIC ACID METABOLITE] — what was its Cmax?
301

* * *

# ASSAY_REMARKS: Half life in men plasma at 80 mg by LC/MS/MS analysis
# Assay type: ADME, organism-based
# SETUP_CONDITIONS: male, human
QUANTITY_MEASURED: half-life (h)
// note: answer is a bare numeric in h

Sample CCCc1nc2c(C)cc(-c3nc4ccccc4n3C)cc2n1Cc1ccc(-c2ccccc2C(=O)O)cc1 — what was its half-life?
25.1

* * *

# ASSAY_REMARKS: AUC in men plasma at 25 to 32 mg by LC/MS/MS analysis
# Type: ADME, organism-based
# SETUP_CONDITIONS: male, human
QUANTITY_MEASURED: AUC (ng·h/mL)
// note: answer is a bare numeric in ng·h/mL

Sample CCOc1nc2cccc(C(=O)O)c2n1Cc1ccc(-c2ccccc2-c2nnn[nH]2)cc1 — what was its AUC?
3260

* * *

# ASSAY_REMARKS: Half life in women plasma at 25 to 32 mg by LC/MS/MS analysis
# Format: ADME, organism-based
# SETUP_CONDITIONS: female, human
QUANTITY_MEASURED: half-life

Sample CCOc1nc2cccc(C(=O)O)c2n1Cc1ccc(-c2ccccc2-c2nnn[nH]2)cc1 — what was its half-life?
12.1 h

* * *

# ASSAY_REMARKS: Tmax in women plasma at 50 mg by LC/MS/MS analysis
# Type: ADME, organism-based
# SETUP_CONDITIONS: female, human
QUANTITY_MEASURED: Tmax (h)
// note: answer is a bare numeric in h

Sample CCCCc1nc(Cl)c(CO)n1Cc1ccc(-c2ccccc2-c2nn[nH]n2)cc1 — what was its Tmax?
1.2

* * *

# ASSAY_REMARKS: Cmax in human plasma expressing CYP2C8*3 allele carrier polymorphism at 50 mg by LC/MS/MS analysis
# Assay type: ADME, organism-based
# Parameters: dose 50 mg
QUANTITY_MEASURED: Cmax

Sample CCCCc1nc(Cl)c(CO)n1Cc1ccc(-c2ccccc2-c2nn[nH]n2)cc1 — what was its Cmax?
231 ng/mL

* * *

# ASSAY_REMARKS: Half life in women plasma treated with losartan at 50 mg by LC/MS/MS analysis
# Assay type: ADME, organism-based
# SETUP_CONDITIONS: female, human
QUANTITY_MEASURED: half-life (h)
// note: answer is a bare numeric in h

Sample CCCCc1nc(Cl)c(C(=O)O)n1Cc1ccc(-c2ccccc2-c2nn[nH]n2)cc1 [CARBOXYLIC ACID METABOLITE] — what was its half-life?
4.8

* * *

# ASSAY_REMARKS: Half life in human plasma expressing CYP2C8*3 allele carrier polymorphism treated with losartan at 50 mg by LC/MS/MS analysis
# Assay type: ADME, organism-based
QUANTITY_MEASURED: half-life (h)
// note: answer is a bare numeric in h

Sample CCCCc1nc(Cl)c(C(=O)O)n1Cc1ccc(-c2ccccc2-c2nn[nH]n2)cc1 [CARBOXYLIC ACID METABOLITE] — what was its half-life?
5.1

* * *

# ASSAY_REMARKS: Clearance in human plasma expressing CYP2C9*1/*1 polymorphism at 25 to 32 mg by LC/MS/MS analysis
# Assay type: ADME, organism-based
QUANTITY_MEASURED: clearance (mL/min/kg)
// note: answer is a bare numeric in mL/min/kg

Sample CCOc1nc2cccc(C(=O)O)c2n1Cc1ccc(-c2ccccc2-c2nnn[nH]2)cc1 — what was its clearance?
2.33

* * *

# ASSAY_REMARKS: Tmax in men plasma at 50 mg by LC/MS/MS analysis
# Type: ADME, organism-based
# SETUP_CONDITIONS: male, human
QUANTITY_MEASURED: Tmax (h)
// note: answer is a bare numeric in h

Sample CCCCc1nc(Cl)c(CO)n1Cc1ccc(-c2ccccc2-c2nn[nH]n2)cc1 — what was its Tmax?
1.2
